This collection of values is drawn from PubChem BioAssay.

Target: Short transient receptor potential channel 4 (Mus musculus)
Assay: blockers of DAMGO-evoked TRPC4 calcium flux – cell-based, second round, Fluo4, HEK293 TRPC4beta/mu-opioid, 1 µM, confirmation (AID 2637);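 on inhibition: percent of integrated ratio relative to wells lacking test compound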
Conditions: at 1 µM; hits give high values
Activity calls are given as the source filed them.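 How the source made its calls: active means calcium signal ratio cut to more than 3 SD under the fully stimulated control mean yet still positive, in both repeats and the primary screen; inactive means the rest.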
value.type: inhibition

molecule=OCCNc1nc2ccccc2n1CCN1CCCCC1 target_or_test_system="Short transient receptor potential channel 4 (Mus musculus)" value_type=inhibition val=inactive
molecule=Cc1ccc(C(=O)O)cc1N=Cc1cc(Br)cc(Br)c1O target_or_test_system="Short transient receptor potential channel 4 (Mus musculus)" value_type=inhibition val=inactive
molecule="COc1cccc(CNC(=O)CCC2CCCN(Cc3cc(Cl)ccc3O)C2)c1 (stereo not given)" target_or_test_system="Short transient receptor potential channel 4 (Mus musculus)" value_type=inhibition val=inactive
molecule=Cc1ccc(NC(=O)Nc2cccc([N+](=O)[O-])c2)nc1 target_or_test_system="Short transient receptor potential channel 4 (Mus musculus)" value_type=inhibition val=inactive
molecule=COCCn1c(SCC(=O)Nc2ccccc2OC)nc2c([nH]c3ccccc32)c1=O target_or_test_system="Short transient receptor potential channel 4 (Mus musculus)" value_type=inhibition val=inactive
molecule=N#Cc1c(N)sc2c1CCCCCC2 target_or_test_system="Short transient receptor potential channel 4 (Mus musculus)" value_type=inhibition val="44% (active)"
molecule=O=C(COC(=O)c1nc(Cl)ccc1Cl)c1ccccc1Cl target_or_test_system="Short transient receptor potential channel 4 (Mus musculus)" value_type=inhibition val=inactive
molecule="O=[N+]([O-])c1cc(C(F)(F)F)ccc1NC1CCN(Cc2ccccc2)C1 (stereo not given)" target_or_test_system="Short transient receptor potential channel 4 (Mus musculus)" value_type=inhibition val=inactive
molecule=COc1ccc(Sc2nc(-c3ccccc3)ncc2C(=O)O)cc1 target_or_test_system="Short transient receptor potential channel 4 (Mus musculus)" value_type=inhibition val=inactive
molecule=C/C(CC(=O)NCc1ccc(Cl)cc1)=N\NC(=O)COc1ccc(C)cc1Br target_or_test_system="Short transient receptor potential channel 4 (Mus musculus)" value_type=inhibition val=inactive

Please go through the list and note inhibition for each molecule.
1. Cc1ccc(C)c(S(=O)(=O)/N=C2\C=C(NS(=O)(=O)c3ccccc3)C(=O)c3ccccc32)c1
2. Cc1ccc(S(=O)(=O)NC(C(=O)Oc2cc3oc(=O)cc(C)c3cc2Cl)C(C)C)cc1 (stereo not given)
3. CCc1c(C(=O)N2CCCN(C)CC2)csc1C
4. O=C(O)c1ccc(-c2ccc(/C=N/Nc3ccc([N+](=O)[O-])cc3)o2)cc1
5. CC(C)CN(C(=O)C1CC1)c1c(N)n(Cc2ccccc2)c(=O)[nH]c1=O
6. Cc1ncsc1CCOC(=O)C12CC3CC(CC(C3)C1)C2

Found:
1: inactive; 2: inactive; 3: 44% (active); 4: inactive; 5: inactive; 6: inactive

Please go through the list and note inhibition for each molecule.
1. COc1ccccc1C(=O)Nc1ccc2c(c1)CCCN2C(=O)c1cccs1
2. CCN(CC)c1nc2ccccc2c(N)c1-c1ccccc1
3. CC(C)(C)NCc1cc(Cl)ccc1OCc1cccs1
4. Cc1ccc2c(c1)N(C(=O)CCC(=O)Nc1ccccc1Br)CC(C)O2 (stereo not given)
5. Cc1ccc(S(=O)(=O)Nc2ccc(N=Nc3ccc(O)cc3)cc2)cc1
6. Cc1ccc(C)c2nc3sc(C(=O)O)cc3cc12

Found:
["inactive", "inactive", "inactive", "46% (active)", "inactive", "inactive"]

Please go through the list and note inhibition for each molecule.
1. COCCn1c(SCc2cccc([N+](=O)[O-])c2)nc2ccccc2c1=O
2. COc1ccc(C2NC(C(=O)O)Cc3c2[nH]c2ccccc32)cc1CN1CCN(c2ccc(F)cc2)CC1 (stereo not given)

Found:
45% (active)
inactive

Please go through the list and note inhibition for each molecule.
1. NS(=O)(=O)c1ccc(Nc2nc(-c3ccc(O)cc3O)cs2)cc1
2. CCCCCCCCCCCCOC(=O)C[N+](C)(C)C
3. CN1CCN(Cc2cccc(Oc3ccc(Cl)cc3)c2)CC1
4. CSCC[C@H](NC(=O)N1CCn2c1nc1ccccc12)C(=O)NCc1ccc(C)cc1
5. C#Cc1ccc(CN2CCCC(C(=O)Nc3ccccc3Oc3cccnc3)C2)cc1 (stereo not given)
6. CCCCN(C)CCNC(=S)Nc1ccc2nc(N3CCN(CC)CC3)cc(C)c2c1

Found:
1: 47% (active); 2: inactive; 3: inactive; 4: inactive; 5: 39% (active); 6: inactive
